system.name: human GABAA α5β2γ1 receptor (Homo sapiens (Human), UniProt P31644+Q8N1C3)
protocol.text: Radioligand binding assay, competition for [3H]RO7239181, membranes from HEK293F cells
Listing of entries alongside the reported Ki.
Answer format reminder: number followed by unit.

Below, 2 molecules whose answers are already recorded.
O=c1ccn2c(n1)CN=C(c1cc(O)ccc1F)c1c-2ccc(Cl)c1Cl    0.39 nM
Cc1cn2c(n1)[C@H](C)N=C(c1nc(O)ccc1F)c1c-2ccc(C(F)(F)F)c1Cl    2.07 nM

query: Record request: Ki value, item COC1CN(C(=O)c2ncn3c2CN=C(c2cc(O)ccc2F)c2c-3ccc(C(F)(F)F)c2Cl)C1
result: 0.85 nM

query: Record request: Ki value, item CN1C(=O)CN=C(c2cc(O)ccc2F)c2c1ccc(Cl)c2Cl
result: 0.34 nM

query: Record request: Ki value, item COC1CN(C(=O)c2nc3n(n2)-c2ccc(C(F)(F)F)c(Cl)c2C(c2cc(O)ccc2F)=NC3)C1
result: 1.04 nM
